experiment: Plasma protein binding in rat
Type: ADME, cell-free
experimental context: read-out: PPB (converted)
measured parameter: fraction unbound
// return a plain number; no unit text

*Q* Name the recorded fraction unbound for CNc1ncnc(-c2cccnc2Oc2ccc(F)c(C(=O)Nc3cc(C(F)(F)F)ccc3N(C)CCCN(C)C)c2)n1 .
*A* 0.07

---

test system: Mast/stem cell growth factor receptor Kit (Homo sapiens)
Sequence (P10721 whole entry): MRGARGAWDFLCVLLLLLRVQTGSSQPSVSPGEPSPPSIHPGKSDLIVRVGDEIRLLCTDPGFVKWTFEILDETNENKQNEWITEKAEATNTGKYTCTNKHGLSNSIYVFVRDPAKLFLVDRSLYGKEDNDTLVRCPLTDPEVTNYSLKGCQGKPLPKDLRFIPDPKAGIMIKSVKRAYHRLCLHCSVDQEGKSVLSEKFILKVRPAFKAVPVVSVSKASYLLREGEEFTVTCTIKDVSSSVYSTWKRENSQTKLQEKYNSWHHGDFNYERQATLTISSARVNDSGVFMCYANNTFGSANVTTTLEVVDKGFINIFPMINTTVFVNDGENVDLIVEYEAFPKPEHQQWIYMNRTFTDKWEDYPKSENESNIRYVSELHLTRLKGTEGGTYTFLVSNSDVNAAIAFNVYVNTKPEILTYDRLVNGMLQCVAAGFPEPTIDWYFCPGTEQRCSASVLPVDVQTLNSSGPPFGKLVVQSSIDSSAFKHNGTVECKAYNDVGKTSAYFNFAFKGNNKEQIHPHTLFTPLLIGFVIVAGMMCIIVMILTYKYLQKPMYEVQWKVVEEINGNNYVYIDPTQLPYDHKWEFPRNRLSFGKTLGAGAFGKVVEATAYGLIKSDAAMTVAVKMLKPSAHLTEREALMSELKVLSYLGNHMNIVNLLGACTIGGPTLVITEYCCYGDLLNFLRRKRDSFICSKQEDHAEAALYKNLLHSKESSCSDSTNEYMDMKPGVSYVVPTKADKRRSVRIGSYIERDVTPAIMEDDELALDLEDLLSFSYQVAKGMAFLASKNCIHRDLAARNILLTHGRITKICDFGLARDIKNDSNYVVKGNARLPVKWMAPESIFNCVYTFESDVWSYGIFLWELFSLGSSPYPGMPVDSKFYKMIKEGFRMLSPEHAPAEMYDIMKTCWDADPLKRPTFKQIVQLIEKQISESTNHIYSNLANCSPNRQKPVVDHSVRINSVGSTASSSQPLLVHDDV
pIC50: −log10 of the molar value.
measured parameter: pIC50

*Q* Find the recorded pIC50 belonging to Cc1ccc(C(=O)Nc2cccc(C(F)(F)F)c2)cc1Nc1ncccc1-c1ccncn1 and report it.
*A* > 7.60

---

experiment: Solubility in 0.01N HCl
Format: physicochemical
Let's look at some compounds and their measured solubility.
The figure you give is taken to be in µg/mL; do not add the unit.

Please review the following examples before continuing.
*Q* For Cc1ccc(C(=O)Nc2ccc(C(F)(F)F)cc2)cc1Oc1ncccc1-c1ccncn1 , what is its reported solubility?
*A* 5

*Q* # solubility lookup, item Cc1ccc(C(=O)Nc2ccc(C(F)(F)F)cc2)cc1Nc1ncccc1-c1ccncn1
*A* 1

Continuing:
*Q* Query (compound): CNc1ncnc(-c2cccnc2Oc2ccc(F)c(C(=O)Nc3cc(C(F)(F)F)ccc3N(C)CCCN(C)C)c2)n1 ; field requested: solubility
*A* 1320

---

In what follows, each item is paired with its pIC50 for Vascular endothelial growth factor receptor 2 (Homo sapiens).
Note on pIC50: it is the negative log10 of concentration, concentration in mol/L.

Recorded results for 2 compounds are shown here.
*Q* For the compound shown here, Cc1ccc(C(=O)Nc2ccccc2)cc1Nc1ncccc1-c1ccncn1 , give the reported pIC50.
*A* 6.36

*Q* Which pIC50 is listed for CNc1nccc(-c2cccnc2Oc2cc(C(=O)Nc3cc(C(F)(F)F)ccc3N3CCOCC3)ccc2C)n1 ?
*A* 6.51

***
*Q* Returns the measured pIC50 for the input compound. Input: CNc1ncnc(-c2cccnc2Oc2cc(C(=O)Nc3cc(C(F)(F)F)ccc3N(C)CCCN(C)C)ccc2C)n1
*A* 5.40

---

test system: Angiopoietin-1 receptor (Homo sapiens, UniProt Q02763)
Sequence (Q02763 whole entry): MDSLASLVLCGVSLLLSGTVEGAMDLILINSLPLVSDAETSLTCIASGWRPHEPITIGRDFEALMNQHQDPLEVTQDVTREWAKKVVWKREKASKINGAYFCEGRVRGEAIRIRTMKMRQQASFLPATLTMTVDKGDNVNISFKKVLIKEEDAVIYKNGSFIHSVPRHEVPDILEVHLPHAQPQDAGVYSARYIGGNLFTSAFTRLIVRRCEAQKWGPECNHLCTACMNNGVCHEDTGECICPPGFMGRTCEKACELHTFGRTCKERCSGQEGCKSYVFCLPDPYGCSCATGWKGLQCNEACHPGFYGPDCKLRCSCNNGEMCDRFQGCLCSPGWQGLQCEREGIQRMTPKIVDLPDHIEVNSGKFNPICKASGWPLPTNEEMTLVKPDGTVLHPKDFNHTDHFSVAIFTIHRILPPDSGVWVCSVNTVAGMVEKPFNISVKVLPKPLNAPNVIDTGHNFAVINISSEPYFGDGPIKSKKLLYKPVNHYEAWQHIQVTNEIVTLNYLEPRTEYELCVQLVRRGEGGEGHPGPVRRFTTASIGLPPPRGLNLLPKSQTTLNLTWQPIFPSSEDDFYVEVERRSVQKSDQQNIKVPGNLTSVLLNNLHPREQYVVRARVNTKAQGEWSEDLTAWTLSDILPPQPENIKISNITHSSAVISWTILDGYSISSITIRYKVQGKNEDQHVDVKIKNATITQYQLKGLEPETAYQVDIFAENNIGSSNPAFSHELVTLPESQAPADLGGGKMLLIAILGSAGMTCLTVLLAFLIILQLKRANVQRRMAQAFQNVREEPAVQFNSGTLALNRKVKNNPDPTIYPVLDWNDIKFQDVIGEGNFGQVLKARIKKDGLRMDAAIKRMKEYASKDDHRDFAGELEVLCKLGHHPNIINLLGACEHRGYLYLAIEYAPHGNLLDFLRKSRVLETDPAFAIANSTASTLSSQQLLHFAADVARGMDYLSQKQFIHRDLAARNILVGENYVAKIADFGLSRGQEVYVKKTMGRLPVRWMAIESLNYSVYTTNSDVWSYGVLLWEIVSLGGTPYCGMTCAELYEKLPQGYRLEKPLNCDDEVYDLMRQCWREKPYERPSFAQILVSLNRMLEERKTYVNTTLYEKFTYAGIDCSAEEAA
experiment: Inhibition of angiopoietin-1-stimulated Tie2 phosphorylation in EA.hy926 cells
Type: functional, cell-based
measured parameter: IC50 (nM)
Kindly answer with a numeric value in nM, unit omitted.

Worked cases, IC50 given:
*Q* # query: IC50 | item CNc1nccc(-c2cccnc2Oc2ccc(F)c(C(=O)Nc3cc(C(F)(F)F)ccc3N3CCCCC3)c2)n1 | system: Angiopoietin-1 receptor (Homo sapiens, UniProt Q02763)
*A* 244

*Q* Value wanted: IC50 (Angiopoietin-1 receptor (Homo sapiens, UniProt Q02763)) of entry CNc1ncnc(-c2cccnc2Oc2cc(C(=O)Nc3cccc(C(F)(F)F)c3)ccc2C)n1
*A* 38

More entries:
*Q* # returns recorded IC50 (system: Angiopoietin-1 receptor (Homo sapiens, UniProt Q02763)) for CNc1nccc(-c2cccnc2Oc2cccc(C(=O)Nc3cc(C(F)(F)F)ccc3N3CCCCC3)c2)n1
*A* 368

*Q* I'm curious: which IC50 was measured for CNc1ncnc(-c2cccnc2Oc2ccc(F)c(C(=O)Nc3cc(C(F)(F)F)ccc3N(C)CCCN(C)C)c2)n1 tested on Angiopoietin-1 receptor (Homo sapiens, UniProt Q02763)?
*A* 62

*Q* Give Angiopoietin-1 receptor (Homo sapiens, UniProt Q02763) IC50 for CNc1ncnc(-c2cccnc2Oc2cc(C(=O)Nc3cc(C(F)(F)F)ccc3N(C)CCCN(C)C)ccc2C)n1
*A* 140

*Q* # returns recorded IC50 (system: Angiopoietin-1 receptor (Homo sapiens, UniProt Q02763)) for CNc1ncnc(-c2cccnc2Oc2ccc(F)c(C(=O)Nc3cc(C4CC4)ccc3N(C)CCCN(C)C)c2)n1
*A* 39

*Q* Short answer please: IC50, Angiopoietin-1 receptor (Homo sapiens, UniProt Q02763), entry CNc1ncnc(-c2cccnc2Oc2cc(C(=O)Nc3cc(C4CCCCC4)ccc3OC)ccc2C)n1
*A* 61
